# Tested on: SW-620 colon
# Protocol Details: NCI tumour cell line growth inhibition, 48 h
Measured Endpoint: TGI

1) CCOCc1nc2c(OC)cc(-c3nc4ccc(N5CCN(C)CC5)cc4[nH]3)c(OC)c2[nH]1	> 100 µM
2) COc1cccc(-c2ccc3c4c2O[C@H]2C(=O)CC[C@@]5(O)[C@@H](C3)N(CC3CC3)CC[C@]425)c1	29.2 µM
3) CC(=O)OC(/C=C/c1ccccc1)=C(OC(C)C)/C1=C(\c2ccccc2)SCCCSC1=O	> 100 µM
4) CC(C)(C)OC(=O)NC(Cc1ccc(OCc2ccccc2)cn1)C(=O)N1CCCCC1 (stereo not given)	> 100 µM
5) Oc1c(CN2CCOCC2)ccc2cccnc12	> 10 µM
